tgt: recombinant human plasminogen activator inhibitor-1 (PAI-1) (Homo sapiens)
Construct: purchased Molecular Innovations, Royal Oak, Mich
test summary: Primary Screen for the PAI-1 Inhibition (residual tPA activity, Spectrozyme-tPA chromogenic substrate)
Format: biochemical
test settings: 25 μM test compound; pH 6.6 buffer
Kindly return Satisfied if reported inhibition at 25 µM is no lower than 60%; return Not satisfied if it is lower.

See these solved cases before continuing.
# compound, label
measured = [
    ("O=C(O)COc1ccc2cc(-c3cnc(Cc4ccccc4)o3)ccc2c1", "Not satisfied"),
    ("CCCCc1oc2ccccc2c1-c1ncc(-c2ccc3cc(OC(Cc4ccccc4)C(=O)O)ccc3c2)o1 (centres unmarked)", "Satisfied"),
    ("Cn1cc(-c2ncc(-c3ccc4cc(OC(Cc5ccccc5)C(=O)O)ccc4c3)o2)c2ccccc21 (centres unmarked)", "Satisfied"),
]

Q: Given CCCCc1oc2ccccc2c1-c1ncc(-c2ccc3cc(OCc4nnn[nH]4)ccc3c2)o1 , state whether its inhibition at 25 µM is at least 60%.
A: Not satisfied

Q: Check if inhibition at 25 µM >= 60% (inclusive). Item: c1ccc(-c2ncc(-c3ccc4cc(OCc5nnn[nH]5)ccc4c3)o2)cc1
A: Satisfied

Q: Determine whether measured inhibition at 25 µM meets or exceeds 60% for c1ccc2cc(Cc3ncc(-c4ccc5cc(OCc6nnn[nH]6)ccc5c4)o3)ccc2c1
A: Not satisfied

Q: Entry Cn1cc(-c2ncc(-c3ccc4cc(OCC(=O)O)ccc4c3)o2)c2ccccc21 : is its inhibition at 25 µM no less than 60%?
A: Not satisfied

----------
tgt: recombinant human plasminogen activator inhibitor-1 (PAI-1) (Homo sapiens, UniProt P05121)
Construct: purchased Molecular Innovations, Royal Oak, Mich
Sequence (P05121 24-402): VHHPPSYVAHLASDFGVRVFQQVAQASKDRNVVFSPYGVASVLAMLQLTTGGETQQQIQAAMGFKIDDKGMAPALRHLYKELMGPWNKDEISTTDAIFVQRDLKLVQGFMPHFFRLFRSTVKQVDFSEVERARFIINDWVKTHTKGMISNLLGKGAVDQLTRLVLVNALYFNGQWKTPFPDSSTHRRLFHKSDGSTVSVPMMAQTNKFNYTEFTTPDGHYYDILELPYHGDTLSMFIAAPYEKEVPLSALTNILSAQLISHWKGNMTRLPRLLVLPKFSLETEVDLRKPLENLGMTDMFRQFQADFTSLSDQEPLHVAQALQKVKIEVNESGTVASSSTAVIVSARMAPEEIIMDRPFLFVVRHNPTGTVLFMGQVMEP
test summary: Primary Screen for the PAI-1 Inhibition (residual tPA activity, Spectrozyme-tPA chromogenic substrate)
Assay type: biochemical
test settings: 25 μM test compound; pH 6.6 buffer
Protocol: Test compounds are dissolved in DMSO at a final concentration of 10 mM, then diluted 100×in physiologic buffer. […] Following the second incubation, Spectrozyme-tPA (American Diagnostica, Greenwich, Conn.), a chromogenic substrate for tPA, is added and absorbance read at 405 nm at 0 and 60 minutes. […]
Is inhibition at 25 µM at least 30%? Then true (1). If not, false (0).

# molecule, tgt, label
rows = [
    ("O=C(O)COc1ccc2cc(-c3cnc(-c4cn(Cc5ccccc5)c5ccccc45)o3)ccc2c1", "recombinant human plasminogen activator inhibitor-1 (PAI-1) (Homo sapiens, UniProt P05121)", "false (0)"),
    ("c1ccc(Cc2ncc(-c3ccc4cc(OCc5nnn[nH]5)ccc4c3)o2)cc1", "recombinant human plasminogen activator inhibitor-1 (PAI-1) (Homo sapiens, UniProt P05121)", "false (0)"),
    ("Cn1cc(-c2ncc(-c3ccc4cc(OCc5nnn[nH]5)ccc4c3)o2)c2ccccc21", "recombinant human plasminogen activator inhibitor-1 (PAI-1) (Homo sapiens, UniProt P05121)", "true (1)"),
]

Shift focus to the following entry.
Q: Test whether the molecule O=C(O)COc1ccc2cc(-c3cnc(Cc4ccc5ccccc5c4)o3)ccc2c1 records inhibition at 25 µM of 30% or higher.
A: false (0)

----------
tgt: recombinant human plasminogen activator inhibitor-1 (PAI-1) (Homo sapiens)
Construct: purchased Molecular Innovations, Royal Oak, Mich
test summary: Primary Screen for the PAI-1 Inhibition (residual tPA activity, Spectrozyme-tPA chromogenic substrate)
Type: biochemical
test settings: 25 μM test compound; pH 6.6 buffer
Listed below: inhibition at 25 µM values for each entry.
Could you give me the number in %? Just the number is fine.

# compound, number
rows = [
    ("CCCCc1oc2ccccc2c1-c1ncc(-c2ccc3cc(OCC(=O)O)ccc3c2)o1 [Example 4]", 46),
]

Q: I am curious: what inhibition at 25 µM value has been reported for CCCCc1oc2ccccc2c1-c1ncc(-c2ccc3cc(OCc4ccc(C(=O)O)cc4C(=O)O)ccc3c2)o1 [Example 18] ?
A: 62

Q: Fill in the blank: the reported inhibition at 25 µM of CCCCc1oc2ccccc2c1-c1ncc(-c2ccc3c(Br)c(OCc4ccc(C(=O)O)cc4)ccc3c2)o1 [Example 19] is ____.
A: 23

Q: Recorded inhibition at 25 µM for CCCCc1oc2ccccc2c1-c1ncc(-c2ccc3cc(OCc4ccc(C(=O)O)cc4)ccc3c2)o1 [Example 17] , please?
A: 20
